EXPERIMENTAL_TARGET: UniProt Q01959
ASSAY_COMMENT: Ratio between [3H]DA reuptake and DAT binding
Type: functional
MEASURED_QUANTITY: Ratio

TEST_SMILES	MEASURED_QUANTITY	VALUE_MEASURED
O=C(Cc1ccccc1)NCCCNCCOC(c1ccc(F)cc1)c1ccc(F)cc1	Ratio	1.2
O=C(/C=C/c1ccc(Br)cc1)NCCNCCOC(c1ccc(F)cc1)c1ccc(F)cc1	Ratio	2.7
CN(CCCN(C)CCc1ccccc1)CCOC(c1ccccc1)c1ccccc1	Ratio	1.1
CN(CCOC(c1ccc(F)cc1)c1ccc(F)cc1)CCN(C)CCOC(c1ccc(F)cc1)c1ccc(F)cc1	Ratio	32.4
CN(CCCc1ccccc1)CCCN(C)CCOC(c1ccccc1)c1ccccc1	Ratio	1.9
O=C(CCc1ccccc1)NCCNCCOC(c1ccc(F)cc1)c1ccc(F)cc1	Ratio	1.8

[1] O=C(Cc1ccccc1)NCCNCCOC(c1ccc(F)cc1)c1ccc(F)cc1
[2] O=C(Cc1ccc(F)cc1)NCCNCCOC(c1ccc(F)cc1)c1ccc(F)cc1
[3] CN(CCOC(c1ccccc1)c1ccccc1)CCN(C)CCc1ccc(F)cc1
[4] Fc1ccc(C(OCCNCCCNCCc2ccccc2)c2ccc(F)cc2)cc1
Problem: Given 4 compounds, produce a descending ranking by Ratio. Returns: the labels listed in the requested order.
Result: 3, 4, 1, 2

---

EXPERIMENTAL_TARGET: Sodium-dependent dopamine transporter (Homo sapiens, UniProt Q01959)
Sequence (Q01959 whole entry): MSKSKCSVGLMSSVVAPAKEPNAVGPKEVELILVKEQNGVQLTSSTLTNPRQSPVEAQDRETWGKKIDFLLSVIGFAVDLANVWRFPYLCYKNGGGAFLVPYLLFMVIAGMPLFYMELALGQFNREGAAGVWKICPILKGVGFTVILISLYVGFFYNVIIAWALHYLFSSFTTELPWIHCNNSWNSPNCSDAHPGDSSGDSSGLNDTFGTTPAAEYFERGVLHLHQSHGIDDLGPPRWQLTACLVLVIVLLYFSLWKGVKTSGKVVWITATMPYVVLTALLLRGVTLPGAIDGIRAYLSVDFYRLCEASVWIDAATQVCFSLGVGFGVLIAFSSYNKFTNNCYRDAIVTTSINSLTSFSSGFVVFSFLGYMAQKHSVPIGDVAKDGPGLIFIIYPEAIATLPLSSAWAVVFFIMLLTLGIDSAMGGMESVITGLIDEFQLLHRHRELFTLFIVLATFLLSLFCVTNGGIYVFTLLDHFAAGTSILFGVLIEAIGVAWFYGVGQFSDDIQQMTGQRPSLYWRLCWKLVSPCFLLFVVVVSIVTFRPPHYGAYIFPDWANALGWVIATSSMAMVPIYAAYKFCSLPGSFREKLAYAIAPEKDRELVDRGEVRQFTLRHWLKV
ASSAY_COMMENT: Inhibition of [3H]DA uptake in HEK cells expressing dopamine transporter
pIC50: −log10 of the molar value.
MEASURED_QUANTITY: pIC50

Some entries whose results are on file:
TEST_SMILES	VALUE_MEASURED
CN(CCOC(c1ccccc1)c1ccccc1)CCN(C)CCc1ccc(F)cc1	6.92
CN(CCCc1ccccc1)CCCN(C)CCOC(c1ccccc1)c1ccccc1	6.63

[P] O=C(/C=C/c1ccc(Br)cc1)NCCNCCOC(c1ccc(F)cc1)c1ccc(F)cc1
[Q] CN(CCCN(C)CCc1ccccc1)CCOC(c1ccccc1)c1ccccc1
[R] CN(CCOC(c1ccc(F)cc1)c1ccc(F)cc1)CCN(C)CCOC(c1ccc(F)cc1)c1ccc(F)cc1
[S] O=C(Cc1ccc(F)cc1)NCCNCCOC(c1ccc(F)cc1)c1ccc(F)cc1
Problem: Rank the items in ascending order with respect to pIC50. Returns: the labels listed in the requested order.
Result: P, R, Q, S

---

EXPERIMENTAL_TARGET: Sodium-dependent dopamine transporter (Homo sapiens)
MEASURED_QUANTITY: Ki (nM)

TEST_SMILES	VALUE_MEASURED
O=C(CCc1ccccc1)NCCNCCOC(c1ccc(F)cc1)c1ccc(F)cc1	51
O=C1CN(CCOC(c2ccccc2)c2ccccc2)CCN1CCCc1ccccc1	8200
Fc1ccc(C(OCCNCCCNCCc2ccccc2)c2ccc(F)cc2)cc1	28

[1] O=C(/C=C/c1ccc(Br)cc1)NCCNCCOC(c1ccc(F)cc1)c1ccc(F)cc1
[2] CN(CCCc1ccccc1)CCCN(C)CCOC(c1ccccc1)c1ccccc1
[3] CN(CCOC(c1ccc(F)cc1)c1ccc(F)cc1)CCN(C)CCOC(c1ccc(F)cc1)c1ccc(F)cc1
[4] CN(CCCN(C)CCc1ccccc1)CCOC(c1ccccc1)c1ccccc1
Problem: Rank the items in ascending order with respect to Ki. Returns: the labels listed in the requested order.
Result: 3, 2, 4, 1

---

EXPERIMENTAL_TARGET: UniProt P31645
ASSAY_COMMENT: Inhibition of [3H]- 5-HT uptake in HEK cells expressing serotonin transporter
Sequence (P31645 whole entry): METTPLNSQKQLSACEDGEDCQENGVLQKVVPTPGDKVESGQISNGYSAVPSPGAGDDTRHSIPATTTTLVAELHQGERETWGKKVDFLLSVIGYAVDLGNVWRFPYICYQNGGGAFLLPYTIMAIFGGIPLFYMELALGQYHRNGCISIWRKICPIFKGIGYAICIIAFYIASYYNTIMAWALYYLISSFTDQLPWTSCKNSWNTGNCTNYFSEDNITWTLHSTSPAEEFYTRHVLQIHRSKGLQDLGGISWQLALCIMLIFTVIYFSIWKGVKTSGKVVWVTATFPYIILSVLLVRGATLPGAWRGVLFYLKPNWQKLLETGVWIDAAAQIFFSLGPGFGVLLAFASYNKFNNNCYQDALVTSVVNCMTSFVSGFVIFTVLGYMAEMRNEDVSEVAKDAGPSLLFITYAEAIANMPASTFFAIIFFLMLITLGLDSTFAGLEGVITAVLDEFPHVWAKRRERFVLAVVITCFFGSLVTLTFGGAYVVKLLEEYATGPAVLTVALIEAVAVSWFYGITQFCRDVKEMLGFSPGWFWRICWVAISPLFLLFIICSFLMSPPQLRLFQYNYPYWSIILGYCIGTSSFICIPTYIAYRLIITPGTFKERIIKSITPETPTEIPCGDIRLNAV
MEASURED_QUANTITY: IC50 (nM)

[I] O=C1CN(CCc2ccccc2)CCN1CCOC(c1ccc(F)cc1)c1ccc(F)cc1
[II] O=C(Cc1ccc(F)cc1)NCCNCCOC(c1ccc(F)cc1)c1ccc(F)cc1
Problem: Between the entries labelled I and II , which has a larger IC50 value on record? // return label of chosen record
Result: I
(I: 3940 nM, II: 1990 nM)

[P] O=C(Cc1ccccc1)NCCNCCOC(c1ccc(F)cc1)c1ccc(F)cc1
[Q] O=C(/C=C/c1ccc(Br)cc1)NCCNCCOC(c1ccc(F)cc1)c1ccc(F)cc1
[R] Fc1ccc(C(OCCNCCCNCCc2ccccc2)c2ccc(F)cc2)cc1
Problem: Given 3 compounds, produce a descending ranking by IC50. Returns: the labels listed in the requested order.
Result: Q, P, R

[A] CN(CCCN(C)CCc1ccccc1)CCOC(c1ccccc1)c1ccccc1
[B] CN(CCOC(c1ccccc1)c1ccccc1)CCN(C)CCc1ccc(F)cc1
Problem: Between the entries labelled A and B , which has a larger IC50 value on record? // return label of chosen record
Result: A
(A: 1700 nM, B: 1050 nM)

[A] O=C(CCc1ccccc1)NCCNCCOC(c1ccc(F)cc1)c1ccc(F)cc1
[B] CN(CCCc1ccccc1)CCCN(C)CCOC(c1ccccc1)c1ccccc1
Problem: Between the entries labelled A and B , which has a larger IC50 value on record? // return label of chosen record
Result: B

---

EXPERIMENTAL_TARGET: Sodium-dependent serotonin transporter (Homo sapiens)
ASSAY_COMMENT: Ratio between [3H]5-HT reuptake and SERT binding
Type: functional
Sequence (P31645 whole entry, looked up): as the sequence (P31645 whole entry) above
MEASURED_QUANTITY: Ratio

TEST_SMILES	EXPERIMENTAL_TARGET	VALUE_MEASURED
CN(CCCN(C)CCc1ccccc1)CCOC(c1ccccc1)c1ccccc1	Sodium-dependent serotonin transporter (Homo sapiens)	1.1
Fc1ccc(C(OCCNCCCNCCc2ccccc2)c2ccc(F)cc2)cc1	Sodium-dependent serotonin transporter (Homo sapiens)	2
CN(CCOC(c1ccccc1)c1ccccc1)CCN(C)CCc1ccc(F)cc1	Sodium-dependent serotonin transporter (Homo sapiens)	1.9
O=C(/C=C/c1ccc(Br)cc1)NCCNCCOC(c1ccc(F)cc1)c1ccc(F)cc1	Sodium-dependent serotonin transporter (Homo sapiens)	7.6
O=C(CCc1ccccc1)NCCNCCOC(c1ccc(F)cc1)c1ccc(F)cc1	Sodium-dependent serotonin transporter (Homo sapiens)	2.2

[a] O=C(Cc1ccccc1)NCCNCCOC(c1ccc(F)cc1)c1ccc(F)cc1
[b] O=C(Cc1ccc(F)cc1)NCCNCCOC(c1ccc(F)cc1)c1ccc(F)cc1
[c] CN(CCCc1ccccc1)CCCN(C)CCOC(c1ccccc1)c1ccccc1
[d] O=C(Cc1ccccc1)NCCCNCCOC(c1ccc(F)cc1)c1ccc(F)cc1
Problem: Given 4 molecules, produce a descending ranking by Ratio. Returns: the labels listed in the requested order.
Result: b, c, a, d
(b: 5.7, c: 3.9, a: 2.3, d: 1.1)

---

Consider the following Ki values measured on Sodium-dependent serotonin transporter (Homo sapiens, UniProt P31645).
MEASURED_QUANTITY: Ki (nM)

Some entries whose results are on file:
TEST_SMILES	EXPERIMENTAL_TARGET	MEASURED_QUANTITY	VALUE_MEASURED
O=C1CN(CCOC(c2ccccc2)c2ccccc2)CCN1CCCc1ccccc1	Sodium-dependent serotonin transporter (Homo sapiens, UniProt P31645)	Ki	5900
CN(CCOC(c1ccccc1)c1ccccc1)CCN(C)CCc1ccc(F)cc1	Sodium-dependent serotonin transporter (Homo sapiens, UniProt P31645)	Ki	550

[I] CN(CCOC(c1ccc(F)cc1)c1ccc(F)cc1)CCN(C)CCOC(c1ccc(F)cc1)c1ccc(F)cc1
[II] O=C(Cc1ccccc1)NCCCNCCOC(c1ccc(F)cc1)c1ccc(F)cc1
[III] O=C(Cc1ccc(F)cc1)NCCNCCOC(c1ccc(F)cc1)c1ccc(F)cc1
Problem: Given 3 compounds, produce a descending ranking by Ki. Returns: the labels listed in the requested order.
Result: II, I, III

---

EXPERIMENTAL_TARGET: Sodium-dependent noradrenaline transporter (Homo sapiens)
ASSAY_COMMENT: Inhibition of [125I]RTI-55 binding to norepinephrine transporter (NET) expressed in HEK cells
Type: cell-based, HEK293
pKi: −log10 of the molar value.
MEASURED_QUANTITY: pKi

TEST_SMILES	pKi
O=C(Cc1ccccc1)NCCNCCOC(c1ccc(F)cc1)c1ccc(F)cc1	6.22

[a] O=C(CCc1ccccc1)NCCNCCOC(c1ccc(F)cc1)c1ccc(F)cc1
[b] O=C1CN(CCc2ccccc2)CCN1CCOC(c1ccc(F)cc1)c1ccc(F)cc1
[c] CN(CCOC(c1ccc(F)cc1)c1ccc(F)cc1)CCN(C)CCOC(c1ccc(F)cc1)c1ccc(F)cc1
[d] O=C(/C=C/c1ccc(Br)cc1)NCCNCCOC(c1ccc(F)cc1)c1ccc(F)cc1
Problem: Rank the items in ascending order with respect to pKi. Returns: the labels listed in the requested order.
Result: b, d, a, c

---

EXPERIMENTAL_TARGET: Sodium-dependent noradrenaline transporter (Homo sapiens, UniProt P23975)
Sequence (P23975 whole entry): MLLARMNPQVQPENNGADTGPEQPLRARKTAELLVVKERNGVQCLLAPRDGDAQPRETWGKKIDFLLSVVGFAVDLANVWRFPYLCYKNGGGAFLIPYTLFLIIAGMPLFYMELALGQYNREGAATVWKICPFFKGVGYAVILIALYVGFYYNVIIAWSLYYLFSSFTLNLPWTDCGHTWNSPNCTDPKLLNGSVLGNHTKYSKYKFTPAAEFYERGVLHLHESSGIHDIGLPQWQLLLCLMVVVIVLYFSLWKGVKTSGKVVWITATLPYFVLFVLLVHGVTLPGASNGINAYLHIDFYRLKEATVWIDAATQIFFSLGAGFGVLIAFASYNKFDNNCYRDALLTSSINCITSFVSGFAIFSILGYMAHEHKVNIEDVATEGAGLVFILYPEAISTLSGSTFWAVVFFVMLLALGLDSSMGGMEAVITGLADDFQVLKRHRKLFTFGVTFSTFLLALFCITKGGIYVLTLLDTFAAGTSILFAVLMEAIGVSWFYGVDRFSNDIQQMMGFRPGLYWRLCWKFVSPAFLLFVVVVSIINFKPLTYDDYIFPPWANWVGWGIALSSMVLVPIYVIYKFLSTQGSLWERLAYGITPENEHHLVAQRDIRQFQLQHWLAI
ASSAY_COMMENT: Inhibition of [3H]- NE uptake in HEK cells expressing norepinephrine transporter
pIC50: −log10 of the molar value.
MEASURED_QUANTITY: pIC50

Some entries whose results are on file:
TEST_SMILES	EXPERIMENTAL_TARGET	pIC50
CN(CCOC(c1ccc(F)cc1)c1ccc(F)cc1)CCN(C)CCOC(c1ccc(F)cc1)c1ccc(F)cc1	Sodium-dependent noradrenaline transporter (Homo sapiens, UniProt P23975)	5.59
CN(CCCc1ccccc1)CCCN(C)CCOC(c1ccccc1)c1ccccc1	Sodium-dependent noradrenaline transporter (Homo sapiens, UniProt P23975)	6.84
O=C(CCc1ccccc1)NCCNCCOC(c1ccc(F)cc1)c1ccc(F)cc1	Sodium-dependent noradrenaline transporter (Homo sapiens, UniProt P23975)	6.69
CN(CCCN(C)CCc1ccccc1)CCOC(c1ccccc1)c1ccccc1	Sodium-dependent noradrenaline transporter (Homo sapiens, UniProt P23975)	6.68
CN(CCOC(c1ccccc1)c1ccccc1)CCN(C)CCc1ccc(F)cc1	Sodium-dependent noradrenaline transporter (Homo sapiens, UniProt P23975)	6.55

[a] O=C(Cc1ccc(F)cc1)NCCNCCOC(c1ccc(F)cc1)c1ccc(F)cc1
[b] Fc1ccc(C(OCCNCCCNCCc2ccccc2)c2ccc(F)cc2)cc1
[c] O=C(Cc1ccccc1)NCCCNCCOC(c1ccc(F)cc1)c1ccc(F)cc1
Problem: Given 3 compounds, produce a descending ranking by pIC50. Returns: the labels listed in the requested order.
Result: b, c, a
